biological target: T1, hPD-L1-His (human, UniProt Q9NZQ7 19-238); experiment: SPR (Biacore T200), antibody on Protein A chip, hPD-L1-His injected, 1:1 fit
T1 construct: Bought protein; also called hPD-L1-His (manufactured by Edison); not shown: His tag
T1 sequence (Q9NZQ7 19-238 limits assumed): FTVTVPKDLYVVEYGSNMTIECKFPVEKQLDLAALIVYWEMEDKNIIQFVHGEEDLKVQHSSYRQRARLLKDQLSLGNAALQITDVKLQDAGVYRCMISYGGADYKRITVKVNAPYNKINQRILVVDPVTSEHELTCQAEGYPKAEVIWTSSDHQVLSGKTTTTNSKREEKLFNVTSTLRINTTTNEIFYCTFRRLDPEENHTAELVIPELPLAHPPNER
metric: pKd
Please keep in mind that pKd is minus log10 of the molar concentration; only the number is needed.

binder: 3F2-H2K2-IgG1 (antibody, V domains shown) VH: DVQLQESGPGLVKPSETLSLTCTVSGYSITSGYNWHWIRQFPGNGLEWMGYIHHSSITNYNPSLKSRITISRDTSKNQFSLKLSSVTAADTATFYCAREGYDYDWFAYWGQGTLVTVSS VL: DIVLTQSPDFQSVTPKEKVTLSCRASQSISNNLHWYQQKPDESPKLLIKYASQSISGIPSRFSGSGSGTDFTLTINSVEAEDFAMYFCQQSKSWPFTFGQGTRLEIK
metric: pKd
reported.measurement: 9.09
--
binder: 7E4-H1K3-IgG1 (antibody, V domains shown) VH: QVQLVQSGAEVKKPGASVKVSCKASGFKFTDYAIHWVRQAPGQSLEWMGVISIYYGEASYNQKFKDRVTLTVDTSASTAYMELSSLRSEDTAVYYCAREDYYGSSSYFDYWGQGTLVTVSS VL: ENVLTQSPSFLSASVGDRVTMTCSASSSVSSSYLHWYQQKSGASPKPLIHRTSNLASGVPSRFSGSGSGTEYTLTISSVQPEDFATYYCQQWSGYPYTFGGGTKLEIK
metric: pKd
reported.measurement: 7.88

For the next question, use this binder.
The value of pKd measured for the binder 3F2-H3K3-IgG1 (antibody, V domains shown) VH: DVQLQESGPGLVKPSETLSLTCTVSGYSITSGYNWHWIRQFPGNGLEWMGYIHHSSITNYNPSLKSRITISRDTSKNQFSLKLSSVTAEDTATFYCAREGYDYDWFAYWGQGTLVTVSS VL: DIVLTQSPDTQSVTPKESVTLSCRASQSISNNLHWYQQKSHESPKLLIKYASQSISGIPSRFSGSGSGTDFTLTINSVEAEDFAMYFCQQSKSWPFTFGQGTRLEIK turned out to be 9.20
